Entry source: patent US20240309070A1

target: T1, Western Reserve B5 on cells infected with VVddeGFP Western Reserve virus (Vaccinia virus, Western Reserve strain, UniProt Q01227 18-317); experiment: flow cytometry, HT29 cells infected with WR VV
T1 construct: also called VV B5; WR
EC50 values, listed per item
Just the number in nM, nothing appended.

Please review the following examples before continuing.
| binder | resultUnit | EC50 |
| --- | --- | --- |
| A048-H3L4 (antibody, V domains shown) VH: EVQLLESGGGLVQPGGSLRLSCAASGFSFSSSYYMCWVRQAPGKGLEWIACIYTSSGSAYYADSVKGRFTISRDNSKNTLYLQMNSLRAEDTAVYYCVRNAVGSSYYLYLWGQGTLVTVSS VL: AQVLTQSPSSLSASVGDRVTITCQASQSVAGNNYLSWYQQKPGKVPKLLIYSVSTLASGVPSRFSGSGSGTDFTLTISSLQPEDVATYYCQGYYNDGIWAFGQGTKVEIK | nM | 3.78 |
| A048-H2L4 (antibody, V domains shown) VH: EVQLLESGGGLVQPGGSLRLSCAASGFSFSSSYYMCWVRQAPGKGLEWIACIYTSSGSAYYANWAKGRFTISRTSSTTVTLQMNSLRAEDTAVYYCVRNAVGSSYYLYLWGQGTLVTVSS VL: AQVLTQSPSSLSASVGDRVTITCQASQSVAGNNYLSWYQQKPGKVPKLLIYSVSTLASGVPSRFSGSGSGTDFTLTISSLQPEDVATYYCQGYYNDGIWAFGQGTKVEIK | nM | 1.68 |
| A048-H3L1 (antibody, V domains shown) VH: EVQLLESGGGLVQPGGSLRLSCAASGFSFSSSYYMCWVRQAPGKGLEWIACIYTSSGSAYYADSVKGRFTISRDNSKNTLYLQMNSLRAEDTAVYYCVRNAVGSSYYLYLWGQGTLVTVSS VL: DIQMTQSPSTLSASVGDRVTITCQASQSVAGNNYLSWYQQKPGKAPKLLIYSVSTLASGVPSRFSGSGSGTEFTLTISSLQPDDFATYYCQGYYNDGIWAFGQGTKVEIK | nM | 0.86 |

Item under review: A048-H1L1 (antibody, V domains shown) VH: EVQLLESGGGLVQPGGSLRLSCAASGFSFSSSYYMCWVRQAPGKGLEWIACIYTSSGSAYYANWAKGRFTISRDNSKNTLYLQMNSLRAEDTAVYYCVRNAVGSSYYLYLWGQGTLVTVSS VL: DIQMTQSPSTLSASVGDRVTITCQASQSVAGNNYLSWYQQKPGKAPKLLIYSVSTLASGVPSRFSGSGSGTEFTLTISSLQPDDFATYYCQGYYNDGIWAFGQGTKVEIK . Reported EC50?
0.97

Find the recorded EC50 belonging to A048-H4L4 (antibody, V domains shown) VH: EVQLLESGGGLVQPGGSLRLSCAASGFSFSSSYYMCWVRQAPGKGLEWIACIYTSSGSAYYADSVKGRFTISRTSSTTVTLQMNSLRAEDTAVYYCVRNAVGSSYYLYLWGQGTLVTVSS VL: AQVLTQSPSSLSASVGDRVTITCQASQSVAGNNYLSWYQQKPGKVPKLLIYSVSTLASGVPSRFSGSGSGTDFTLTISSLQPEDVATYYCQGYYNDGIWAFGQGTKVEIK and report it.
3.05

Given A048-H2L2 (antibody, V domains shown) VH: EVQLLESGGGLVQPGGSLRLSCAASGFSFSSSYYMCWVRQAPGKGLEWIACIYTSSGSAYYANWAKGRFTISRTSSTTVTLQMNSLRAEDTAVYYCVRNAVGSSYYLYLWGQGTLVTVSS VL: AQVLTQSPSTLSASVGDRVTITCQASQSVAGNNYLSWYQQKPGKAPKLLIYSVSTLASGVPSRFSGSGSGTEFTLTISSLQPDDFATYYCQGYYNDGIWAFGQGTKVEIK , state its recorded EC50.
1.71

# EC50 lookup, item A048-H5L5 (antibody, V domains shown) VH: QVTLKESGPVLVKPTETLTLTCTASGFSFSSSYYMCWVRQPPGKALEWIACIYTSSGSAYYANWAKGRFTISRDTSKSQVVLTMTNMDPVDTATYFCVRNAVGSSYYLYLWGQGTLVTVSS VL: EQVLTQSPATLSLSPGERATLSCQASQSVAGNNYLSWYQQKPGQAPRLLIYSVSTLASGIPARFSGSGSGTDFTLTISSLEPEDFAVYYCQGYYNDGIWAFGQGTKLEIK
2.28

Dear colleague, I am looking for the recorded EC50 of the following binder: A048-H2L3 (antibody, V domains shown) VH: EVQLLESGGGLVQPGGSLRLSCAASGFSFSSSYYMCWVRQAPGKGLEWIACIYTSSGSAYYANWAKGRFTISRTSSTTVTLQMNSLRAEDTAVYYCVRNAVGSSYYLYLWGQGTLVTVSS VL: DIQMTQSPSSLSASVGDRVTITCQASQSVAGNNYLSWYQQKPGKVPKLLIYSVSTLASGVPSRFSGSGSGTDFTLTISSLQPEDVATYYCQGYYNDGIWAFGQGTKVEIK
1.73

Any idea what EC50 was measured for A048 parental (antibody, V domains shown, also called A048 rabbit parental antibody; A048 parental anti-B5 hIgG1) VH: QEQLEESGGGLVKPEGSLTLTCTASGFSFSSSYYMCWVRQAPGRGLEWIACIYTSSGSAYYANWAKGRFTISRTSSTTVTLQMTRLTAADTATYFCVRNAVGSSYYLYLWGPGTLVTVSS VL: AQVLTQTPSPVSAAVGGTVTISCQASQSVAGNNYLSWYQQKPGQPPNLLIYSVSTLASGVPSRFKGSGSGTQFTLTISDLECDDAATYYCQGYYNDGIWAFGGGTEVVVK ?
3.51

Entry A048-H4L3 (antibody, V domains shown) VH: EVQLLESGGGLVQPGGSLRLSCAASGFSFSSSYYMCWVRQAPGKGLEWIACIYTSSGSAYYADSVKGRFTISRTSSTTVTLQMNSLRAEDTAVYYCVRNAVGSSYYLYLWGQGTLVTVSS VL: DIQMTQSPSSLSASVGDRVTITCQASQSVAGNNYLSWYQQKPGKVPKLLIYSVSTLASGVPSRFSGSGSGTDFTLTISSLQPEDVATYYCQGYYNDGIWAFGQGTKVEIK has what EC50?
3.5
